- Tested on: CAL-148
- CONDITION_SET: 72 h
Consider the following molecules; for each one, report its EC50, CellTiter-Blue viability.
Answers are plain numbers, in nM.

Take a look at these entries with their results.
COc1cccc2c1C(=O)c1c(O)c3c(c(O)c1C2=O)C[C@@](O)(C(C)=O)C[C@@H]3O[C@H]1C[C@H](N)[C@H](O)[C@H](C)O1; 66.1
C[C@@H]1C=C2C(=O)O[C@@H]3CC[C@H](C1)[C@]23O; 16100
COc1ncc(-c2ccc3nccc(-c4ccnnc4)c3c2)cc1NS(=O)(=O)c1ccc(F)cc1F; 27.6
COC1=CC(c2cc3ccccc3[nH]2)=N/C1=C\c1[nH]c(C)cc1C; 3150
O=c1[nH]cc(F)c(=O)[nH]1; 944
CC(=O)O[C@H]1C(=O)[C@@]2(C)[C@H]([C@H](OC(=O)c3ccccc3)[C@]3(O)C[C@H](OC(=O)[C@H](O)[C@@H](NC(=O)c4ccccc4)c4ccccc4)C(C)=C1C3(C)C)[C@]1(OC(C)=O)CO[C@@H]1C[C@@H]2O; 6.75
C#Cc1cccc(Nc2ncnc3cc(OC)c(OCCCCCCC(=O)NO)cc23)c1; 817

Give me measured EC50, CellTiter-Blue viability, please, for this molecule: `COC(=O)C[C@](O)(CCCC(C)(C)O)C(=O)O[C@@H]1C(OC)=C[C@]23CCCN2CCc2cc4c(cc2[C@H]13)OCO4`
13.7

---

Consider the following molecules; for each one, report its normalised viability.
- Tested on: DU-4475
- EXPERIMENT_SUMMARY: normalised viability (% of control), CellTiter-Blue; higher = more viable cells (about 100 = DMSO control)
- CONDITION_SET: incubation time: 72 h
Lab note: write values as number then unit, every time.

Take a look at these entries with their results.
COC1=C2C[C@@H](C)C[C@H](OC)[C@H](O)[C@@H](C)/C=C(\C)[C@H](OC(N)=O)[C@@H](OC)/C=C\C=C(/C)C(=O)NC(=CC1=O)C2=O [Geldanamycin] (10000 nM); -0.94%
COC1=CC(c2cc3ccccc3[nH]2)=N/C1=C\c1[nH]c(C)cc1C [Obatoclax] (10000 nM); 30%
c1ccc(C2CN3CCSC3=N2)cc1 (stereo not given) [Tetramisole] (10000 nM); 101%
O=c1[nH]cc(F)c(=O)[nH]1 [Fluorouracil] (10000 nM); 75.2%

// moving on: another record for normalised viability
Give me measured normalised viability, please, for this molecule: C[C@@]1(C(=O)Nc2ccc(F)nc2)CCCN1c1nc(Nc2cc(C3CC3)n[nH]2)c2cccn2n1 (10000 nM)
3.48%

---

Consider the following compounds; for each one, report its normalised response.
- System: SK-BR-3
- EXPERIMENT_SUMMARY: normalised response (% of control), CellTiter-Glo; higher = more viable cells (100 = DMSO, 0 = benzethonium chloride kill control)
- CONDITION_SET: incubation time: 72 h
Numbers only, in %.

COc1ncc(-c2ccc3nccc(-c4ccnnc4)c3c2)cc1NS(=O)(=O)c1ccc(F)cc1F (10 nM); 53
COC(=O)C[C@](O)(CCCC(C)(C)O)C(=O)O[C@@H]1C(OC)=C[C@]23CCCN2CCc2cc4c(cc2[C@H]13)OCO4 [Omacetaxine] (100 nM); 44.9
O=c1[nH]cc(F)c(=O)[nH]1 [Fluorouracil] (100 nM); 104
CC(C)(C)c1cc(NC(=O)Nc2ccc(-c3cn4c(n3)sc3cc(OCCN5CCOCC5)ccc34)cc2)no1 [Quizartinib] (10 nM); 104

Each compound below has a reported value. Please supply its normalised response.
1. Nc1nccc(-c2c(-c3ccc(F)cc3)ncn2C2CCCCC2)n1 (100 nM)
2. CCS(=O)(=O)c1cccc(-c2cc(C(=O)NC3CCN(C)CC3)c(C)c3[nH]c4ncc(C)cc4c23)c1 [TAK-901] (10 nM)

97.3
108

---

Consider the following compounds; for each one, report its drug sensitivity score.
- Test system: SK-BR-3
- EXPERIMENT_SUMMARY: drug sensitivity score (DSS), CellTiter-Blue viability (DSS (AUC-based score)); higher = stronger viability inhibition; extreme values may be limits of the assay
- CONDITION_SET: incubation time: 72 h
Give bare numbers.

Each compound below has a reported value. Please supply its drug sensitivity score.
1. c1ccc(C2CN3CCSC3=N2)cc1 (centres undefined) [Tetramisole]
2. COC1=C2C[C@@H](C)C[C@H](OC)[C@H](O)[C@@H](C)/C=C(\C)[C@H](OC(N)=O)[C@@H](OC)/C=C\C=C(/C)C(=O)NC(=CC1=O)C2=O [Geldanamycin]
3. O=P(O)(NCCCl)NCCCl [Ifosfamide mustard]
4. C[C@@H]1C=C2C(=O)O[C@@H]3CC[C@H](C1)[C@]23O [Galiellalactone]
5. CCOc1cc2ncc(C#N)c(Nc3ccc(OCc4ccccn4)c(Cl)c3)c2cc1NC(=O)/C=C/CN(C)C [Neratinib]
6. O=c1[nH]cc(F)c(=O)[nH]1 [Fluorouracil]
7. COc1cc(Nc2ncc(F)c(Nc3ccc4c(n3)NC(=O)C(C)(C)O4)n2)cc(OC)c1OC [R406]

1: 0; 2: 25.2; 3: 0; 4: 6.66; 5: 0; 6: 8.26; 7: 0

Each compound below has a reported value. Please supply its drug sensitivity score.
1. COc1cccc2c1C(=O)c1c(O)c3c(c(O)c1C2=O)C[C@@](O)(C(C)=O)C[C@@H]3O[C@H]1C[C@H](N)[C@H](O)[C@H](C)O1 [Daunorubicin]
2. CC(C)(C)c1cc(NC(=O)Nc2ccc(-c3cn4c(n3)sc3cc(OCCN5CCOCC5)ccc34)cc2)no1 [Quizartinib]

1. 13.1
2. 0

---

- System: HCC1599
- EXPERIMENT_SUMMARY: normalised response (% of control), CellTox Green; higher = less cell death (100 = DMSO, 0 = benzethonium chloride kill control)
- CONDITION_SET: incubation time: 72 h
REPORTED_METRIC: normalised response (%)
Give bare numbers, in %.

Take a look at these entries with their results.
FC(F)c1nc2ccccc2n1-c1nc(N2CCOCC2)nc(N2CCOCC2)n1 [ZSTK474] (10000 nM); 88.4
CN1CCN(c2ccc3nc(-c4c(N)c5c(F)cccc5[nH]c4=O)[nH]c3c2)CC1 [Dovitinib] (100 nM); 108
O=c1[nH]c(=O)n([C@H]2C[C@H](O)[C@@H](CO)O2)cc1F [Floxuridine] (100 nM); 113
C#Cc1cccc(Nc2ncnc3cc(OC)c(OCCCCCCC(=O)NO)cc23)c1 [CUDC-101] (10000 nM); 79.8
CS(=O)(=O)CCNCc1ccc(-c2ccc3ncnc(Nc4ccc(OCc5cccc(F)c5)c(Cl)c4)c3c2)o1 [Lapatinib] (1000 nM); 107

Each compound below has a reported value. Please supply its normalised response.
1. CCS(=O)(=O)c1cccc(-c2cc(C(=O)NC3CCN(C)CC3)c(C)c3[nH]c4ncc(C)cc4c23)c1 [TAK-901] (10 nM)
2. Cn1c(=O)c(F)c(Nc2ccc(I)cc2F)c2c(=O)n(C[C@@H](O)CO)cnc21 [TAK-733] (100 nM)

[104, 104]

---

- Test system: MDA-MB-453
- EXPERIMENT_SUMMARY: normalised response (% of control), CellTiter-Glo; higher = more viable cells (100 = DMSO, 0 = benzethonium chloride kill control)
- CONDITION_SET: incubation time: 72 h
Think of 90% as a floor: if normalised response stands on it or above, it is Met; beneath it, Not met.

CCCC(CCC)C(=O)O [Valproic acid] (10000 nM); Met
FC(F)c1nc2ccccc2n1-c1nc(N2CCOCC2)nc(N2CCOCC2)n1 [ZSTK474] (100 nM); Not met
C#Cc1cccc(Nc2ncnc3cc(OC)c(OCCCCCCC(=O)NO)cc23)c1 [CUDC-101] (100 nM); Not met
COC(=O)C[C@](O)(CCCC(C)(C)O)C(=O)O[C@@H]1C(OC)=C[C@]23CCCN2CCc2cc4c(cc2[C@H]13)OCO4 [Omacetaxine] (100 nM); Not met
CCS(=O)(=O)c1cccc(-c2cc(C(=O)NC3CCN(C)CC3)c(C)c3[nH]c4ncc(C)cc4c23)c1 [TAK-901] (10 nM); Met
CC(C)(C)c1cc(NC(=O)Nc2ccc(-c3cn4c(n3)sc3cc(OCCN5CCOCC5)ccc34)cc2)no1 [Quizartinib] (10 nM); Met
CC(C)C[C@H](NC(=O)[C@H](Cc1ccccc1)NC(=O)c1cnccn1)B(O)O [Bortezomib] (10 nM); Not met

Shifting focus to the compound that follows.
Quick check, normalised response >= 90%? C[C@@H]1CCN(C(=O)CC#N)C[C@@H]1N(C)c1ncnc2[nH]ccc12 [Tofacitinib] (50 nM)
Met
